Catalogue of pIC50 readings, one per entry.
# target or test system: HBsAg of HBV genotype B (AF 121245) (Hepatitis B virus)
# Sequence (Q9PWW3 175-400): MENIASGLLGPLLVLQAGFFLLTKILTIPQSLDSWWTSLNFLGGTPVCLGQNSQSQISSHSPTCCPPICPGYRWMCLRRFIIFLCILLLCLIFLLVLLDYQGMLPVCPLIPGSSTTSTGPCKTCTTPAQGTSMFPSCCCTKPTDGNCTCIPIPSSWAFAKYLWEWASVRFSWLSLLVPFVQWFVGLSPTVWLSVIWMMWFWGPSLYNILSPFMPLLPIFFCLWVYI
# procedure text: sandwich ELISA, captured HBsAg from culture supernatant
Reminder that pIC50 is minus the log10 of a molar concentration.

Worked cases, pIC50 given:
binder	observed property	recorded result
NOV3540 (antibody, human IgG1, kappa, V domains shown, Full human IgG1 (kappa) expressed in CHO cells) VH: EVQLLESGGGLVQPGGSLRLSCAASGFTFSPHAMSWVRQAPGKGLEWVSAISDSGGSTHYADSVKGRFTISRDNSKNTLYLQMNSLRAEDTAVYYCARDDDAWSGYDYWFDYWGQGTLVTVSS VL: DIQMTQSPSSLSASVGDRVTITCRASQSISPYLNWYQQKPGKAPKLLIYAADSLQSGVPSRFSGSGSGTDFTLTISSLQPEDFATYYCQQSYKIPLTFGQGTKVEIKR	pIC50	10.23
NOV3831 (antibody, human IgG1, lambda, V domains shown, Full human IgG1 (lambda) expressed in CHO cells) VH: EMQVLESGGGLVQPGGSLRLSCAASGFTFNNYAMSWVRQVPGKGLEWVSSISGSGGSTYYADSVKGQFTISRDNSKNTLYLQMNSLRAEDTAVYYCAKSSILSGGHARVYGIDVWGQGTTVTVSS VL: QSALTQPPSVSVAPGQTARITCGGNNIGSQSVHWYQQKPGQAPILVVYDDTDRPSGIPARFSGSSSGSTATLTIGRVEAGDEADYYCQVWDSSSDHVVFGGGTKLTVLS	pIC50	10.82
NOV3840 (antibody, human IgG1, lambda, V domains shown, Full human IgG1 (lambda) expressed in CHO cells) VH: EVQLLESGGGLVQPGGSRRLSCAASGFTFSYYGMNWVRQAPGKGLEWVSGITNSGSITYYADSVKGRFSISRDNSKNTLFLQMNSLRAEDTAVYYCAKVGVRSSSGMWDLDYWGQGTLVTVSS VL: SYVLTQPPSVSVAPGQTARLSCGGNNIGSKSLQWYQQKPGQAPVLVVNDDSDRPSGIPERFSGSNSGNTATLTISRVEAGDEADYYCQVWDTSSDHVVFGGGTKLTVLG	pIC50	10.66
NOV3839 (antibody, human IgG1, kappa, V domains shown, Full human IgG1 (kappa) expressed in CHO cells) VH: QVQLQESGGRLVRPGGSLRLSCAASGFIFTDYYMTWIRQAPGKGPEWIAFITSGGETTYYADSVKGRFTISRDNAKKSLFLQMYSLRADDTAVYYCVRAHFDIYQYDTRGDFTYYFDNWGLGTLVSVSS VL: EIVMTQSPATLSVSPGERVTLSCRASQSVSSSLAWYQQKPGRAPRLLIYGASTRATGVPARFSGGGSGTDFTLTISSLQSEDFAVYYCHQYINWPPGDTFGQGTRLDIKR	pIC50	9.77

The record that follows has no pIC50 shown yet.
# pIC50 of NOV3357 (antibody, human IgG1, kappa, V domains shown, Full human IgG1 (kappa) expressed in CHO cells) VH: EVQLLESGGGLVQPGGSLRLSCAASGFTFSPHAMSWVRQAPGKGLEWVSAISDSGGSTHYADSVKGRFTISRDNSKNTLYLQMNSLRAEDTAVYYCARDDDGWSGYDYWFDYWGQGTLVTVSS VL: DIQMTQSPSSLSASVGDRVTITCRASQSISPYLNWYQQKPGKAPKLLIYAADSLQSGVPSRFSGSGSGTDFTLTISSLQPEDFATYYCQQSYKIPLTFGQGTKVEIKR = 10.77
